# PROTOCOL TEXT: Luciferase activity of purified RLuc mutants (light output integrated over 10 s, luminometer)
# Assay type: biochemical
# PROTOCOL CONDITIONS: benzyl-coelenterazine; relative to native enzyme
OBSERVATION TYPE: Activity (relative to RLuc) bc

• C124A/F262L: RLuc mutant C124A/F262L (protein) MASKVYDPEQRKRMITGPQWWARCKQMNVLDSFINYYDSEKHAENAVIFLHGNAASSYLWRHVVPHIEPVARCIIPDLIGMGKSGKSGNGSYRLLDHYKYLTAWFELLNLPKKIIFVGHDWGAALAFHYSYEHQDKIKAIVHAESVVDVIESWDEWPDIEEDIALIKSEEGEKMVLENNFFVETMLPSKIMRKLEPEEFAAYLEPFKEKGEVRRPTLSWPREIPLVKGGKPDVVQIVRNYNAYLRASDDLPKMFIESDPGFLSNAIVEGAKKFPNTEFVKVKGLHFSQEDAPDEMGKYIKSFVERVLKNEQ = 0.03
• C124A/M295I: RLuc mutant C124A/M295I (protein) MASKVYDPEQRKRMITGPQWWARCKQMNVLDSFINYYDSEKHAENAVIFLHGNAASSYLWRHVVPHIEPVARCIIPDLIGMGKSGKSGNGSYRLLDHYKYLTAWFELLNLPKKIIFVGHDWGAALAFHYSYEHQDKIKAIVHAESVVDVIESWDEWPDIEEDIALIKSEEGEKMVLENNFFVETMLPSKIMRKLEPEEFAAYLEPFKEKGEVRRPTLSWPREIPLVKGGKPDVVQIVRNYNAYLRASDDLPKMFIESDPGFFSNAIVEGAKKFPNTEFVKVKGLHFSQEDAPDEIGKYIKSFVERVLKNEQ = 0.83

Measured values drawn from patent US7842469B2 for this set.
